Sourced from ChEMBL document CHEMBL1799997

Assay: Plasma protein binding in Sprague-Dawley rat
Format: ADME, cell-free
Conditions: read-out: PPB (converted)
Exercise: state measured fraction unbound for each of the molecules provided.
Give the figure by itself; no unit, no explanation.

// returns reported fraction unbound for input `CN(C)S(=O)(=O)N1CC[C@@H](Oc2cc(F)cc(NC(=O)Nc3cccnc3)c2)C1`
0.112

Give the measured fraction unbound of `CC(=O)N1CCC[C@H](Oc2cc(F)cc(NC(=O)Nc3cccnc3)c2)C1` .
0.175

Which fraction unbound reading was recorded for the molecule `COC(=O)N1CCC(Oc2cc(F)cc(NC(=O)Nc3ccc(C)nc3)c2)CC1` ?
0.065

Reported fraction unbound for `O=C(Nc1cc(F)cc(Oc2cccnc2)c1)c1ccc(F)cc1` : what is it?
0.079

Returns the measured fraction unbound for the input molecule. Input: COC(=O)N1CCN(Cc2cccc(NC(=O)Nc3ccc(C)nc3)c2F)CC1 [OMECAMTIV MECARBIL]
0.204
